Test: xn = mol fraction of the nth substance listed, in the solute-free solvent
Conditions: 323.15 K; x2 = 0.1139
Please mark true if the recorded solubility (g/100 g solution) is equal to or greater than 0.3, and false if it falls below.

Enquiry: solubility (g/100 g solution) >= 0.3 for Nc1nccnc1Cl + CC(C)O + O ?
Return: true

Enquiry: Dear colleague, could you confirm whether Cc1[nH]c(=O)c(C#N)cc1-c1ccncc1 + CC(C)O + O has solubility (g/100 g solution) at or above 0.3?
Return: false

Enquiry: Hi, just wondering whether c1ccc2[nH]c(-c3cscn3)nc2c1 + CC(C)O + O shows solubility (g/100 g solution) of 0.3 or higher.
Return: false

Enquiry: Hello, I need to know if CN1CCN(C2=Nc3cc(Cl)ccc3Nc3ccccc32)CC1 + CC(C)O + O has measured solubility (g/100 g solution) not below 0.3. Thanks!
Return: true

Enquiry: Reported solubility (g/100 g solution) at or above 0.3? c1ccc2[nH]c(-c3cscn3)nc2c1 + CCCO + O
Return: false

Enquiry: Would you say Nc1cccc(S(=O)(=O)c2cccc(N)c2)c1 + CC(C)O + O shows solubility (g/100 g solution) at minimum 0.3?
Return: true

----------
Experiment: xn = mol fraction of the nth substance listed, in the solute-free solvent
Conditions: 293.15 K; x2 = 0.4117
metric: solubility (g/100 g solution)
Enter a number only.

Enquiry: Identify the reported solubility (g/100 g solution) for the following entry. c1ccc2[nH]c(-c3cscn3)nc2c1 + CCCO + O
Return: 0.38

Enquiry: Recall and state the measured solubility (g/100 g solution) for c1ccc2[nH]c(-c3cscn3)nc2c1 + CC(C)O + O .
Return: 0.181

Enquiry: Give reported solubility (g/100 g solution) value for CN1CCN(C2=Nc3cc(Cl)ccc3Nc3ccccc32)CC1 + CC(C)O + O
Return: 0.933

Enquiry: Annotate the molecule Nc1nccnc1Cl + CC(C)O + O with its measured solubility (g/100 g solution).
Return: 0.73

Enquiry: Write down solubility (g/100 g solution) measured for item Nc1cccc(S(=O)(=O)c2cccc(N)c2)c1 + CC(C)O + O
Return: 0.662

Enquiry: Recall and state the measured solubility (g/100 g solution) for Cc1[nH]c(=O)c(C#N)cc1-c1ccncc1 + CC(C)O + O .
Return: 0.0119

----------
Assay: xn = mol fraction of the nth substance listed, in the solute-free solvent
Details: 293.15 K; x2 = 0.03225
solubility (g/100 g solution) of 0.01 or higher: TRUE. Under 0.01: FALSE.

Enquiry: Hi, just wondering whether Nc1nccnc1Cl + CC(C)O + O shows solubility (g/100 g solution) of 0.01 or higher.
Return: TRUE

Enquiry: Could you tell me if the measured solubility (g/100 g solution) of Nc1cccc(S(=O)(=O)c2cccc(N)c2)c1 + CC(C)O + O reaches 0.01 or more?
Return: TRUE

Enquiry: Quick check, solubility (g/100 g solution) >= 0.01? Cc1[nH]c(=O)c(C#N)cc1-c1ccncc1 + CC(C)O + O
Return: FALSE

Enquiry: Entry CN1CCN(C2=Nc3cc(Cl)ccc3Nc3ccccc32)CC1 + CC(C)O + O : is its solubility (g/100 g solution) no less than 0.01?
Return: TRUE

Enquiry: Confirm if solubility (g/100 g solution) reported for the compound c1ccc2[nH]c(-c3cscn3)nc2c1 + CCCO + O is 0.01 or above.
Return: FALSE

Enquiry: Quick check: does c1ccc2[nH]c(-c3cscn3)nc2c1 + CC(C)O + O have solubility (g/100 g solution) greater than or equal to 0.01?
Return: FALSE
